tested on: HBV (HepG2.117 cell line, inducibly HBV producing); experiment: Anti-HBV activity: intracellular HBV DNA by real-time PCR in HepG2.117 cells after 3 days of treatment; type: cell-based, hepatitis B virus; conditions: Hepatitis B virus, HepG2.117, 72 h, HepG2.117 cells, 3 days of treatment, intracellular HBV DNA by real-time PCR; mean value; read-out: EC50 (μM, mean value)
measurementLabel: log10(EC50) (log10 of the value in µM)
Each number you see is log10 of EC50, and the unit inside the log is µM.

Measured log10(EC50) of CNC(=O)c1ccc(-n2c(N3CCCC3(C)C)nc3c(c2=O)C[C@@H](C)N(C(=O)c2ccc(Cl)c(Cl)c2)C3)cc1 : -1.05

Measured log10(EC50) of CNC(=O)c1ccc(-n2c(NCc3ccc4[nH]ccc4c3)nc3c(c2=O)C[C@@H](C)N(C(=O)c2ccc(Cl)c(Cl)c2)C3)cc1 : -0.89

Measured log10(EC50) of CCC1Cc2c(nc(NC(C)C)n(-c3ccc(S(C)(=O)=O)cc3)c2=O)CN1C(=O)c1ccc(Cl)c(Cl)c1 (stereo not drawn) : 0.06

Measured log10(EC50) of CNC(=O)c1ccc(-n2c(Nc3ccon3)nc3c(c2=O)C[C@@H](C)N(C(=O)c2ccc(Cl)c(Cl)c2)C3)cc1 : 1.04

Measured log10(EC50) of COc1ccc(CNc2nc3c(c(=O)n2CCNS(C)(=O)=O)CCN(C(=O)c2ccc(Cl)c(Cl)c2)C3)cc1 : 0.88

Measured log10(EC50) of CNC(=O)OCC[C@@H](Nc1nc2c(c(=O)n1-c1ccc(C(=O)NC)cc1)C[C@@H](C)N(C(=O)c1ccc(Cl)c(Cl)c1)C2)C1CC1 (single isomer, unassigned) : 0.51
